- Measured Target: 5-hydroxytryptamine receptor 2A (Homo sapiens) (UniProt P28223)
- Sequence (P28223 whole entry): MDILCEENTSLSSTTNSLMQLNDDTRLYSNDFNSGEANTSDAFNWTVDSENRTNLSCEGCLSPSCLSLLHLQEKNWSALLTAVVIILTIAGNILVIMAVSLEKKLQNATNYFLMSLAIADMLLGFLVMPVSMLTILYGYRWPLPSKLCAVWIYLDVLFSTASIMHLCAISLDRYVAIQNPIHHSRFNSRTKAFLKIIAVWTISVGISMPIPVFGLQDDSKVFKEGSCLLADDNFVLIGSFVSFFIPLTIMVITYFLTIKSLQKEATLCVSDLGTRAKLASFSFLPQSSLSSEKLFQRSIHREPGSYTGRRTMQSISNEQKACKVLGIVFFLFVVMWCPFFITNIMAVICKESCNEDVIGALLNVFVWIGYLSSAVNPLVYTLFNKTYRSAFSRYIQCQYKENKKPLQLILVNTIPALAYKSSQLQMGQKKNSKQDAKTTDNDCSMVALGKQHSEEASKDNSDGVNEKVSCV
- Assay Setup: Compound concentration 10 µM; call rule not given here
Use one of these outcomes when replying: Yes for active, No for inactive

-- ask So what was the verdict on `CCCCN(CCCC)C(=O)CN1C[C@@H](c2ccc3c(c2)OCO3)[C@H](C(=O)O)[C@H]1c1ccc(OC)cc1` in this test?
-- reply No

-- ask Outcome? `COc1ccc(CNC(=O)c2cc(-c3cncc(Cl)c3)cnc2-c2ccccn2)nc1OC`
-- reply Yes

-- ask Please let me know the test result on file for `O=C(O)C1CN(Cc2ccc(-c3nc4cc(Cc5ccccc5F)ccc4s3)c(F)c2)C1` .
-- reply No

-- ask Any idea what this test logged for `C[N+]1(C)[C@@H]2C[C@@H](OC(=O)C(O)(c3cccs3)c3cccs3)C[C@H]1[C@@H]1O[C@@H]12` ?
-- reply No

-- ask Dear all, I need the recorded test outcome for `Cc1cc(NC(=O)NCCN2CCC(O)(Cc3ccccc3)CC2)c2ccccc2n1` , thank you.
-- reply Yes

This collection of values is drawn from ChEMBL document CHEMBL5442219.
